tested on: Mus musculus; test: Percent change in locomotor activity in mice at 3 mg/kg i.p. in 4 h.; format: functional; conditions: route intraperitoneal
Property Measured: Change (%)
One number for each entry, in %.

## Task Please look at Cc1ccc(C2CC3CCC(C2c2cc(-c4ccc(F)cc4)no2)N3C)cc1 (configuration not stated) and tell me its recorded Change on Mus musculus.
## Result 140

## Task Please respond with reported Change (system Mus musculus) for CN1C2CC[C@@H]1C[C@H](c1ccc(Cl)cc1)C2c1cc(-c2ccccc2)no1 (some centres not stated) .
## Result 378

Report Change for each item below.
1. CCc1cc(C2C(c3ccc(C)cc3)CC3CCC2N3C)on1 (configuration not stated)
2. CN1C2CCC1C(c1cc(-c3ccc(F)cc3)no1)C(c1ccc(Cl)cc1)C2 (configuration not stated)
3. Cc1ccc(C2CC3CCC(C2c2cc(-c4ccccc4)no2)N3C)cc1 (configuration not stated)
4. Cc1ccc(C2CC3CCC(C2c2ccno2)N3C)cc1 (configuration not stated)
5. CN1C2CCC1C(c1cc(-c3ccc(Cl)cc3)no1)C(c1ccc(Cl)cc1)C2 (configuration not stated)
6. Cc1ccc(-c2cc(C3C(c4ccc(Cl)cc4)CC4CCC3N4C)on2)cc1 (configuration not stated)
7. CC(C)c1cc(C2C(c3ccc(Cl)cc3)CC3CCC2N3C)on1 (configuration not stated)

## Result
[81, 392, 329, 125, 389, 119, 1745]

----------
Here's a batch of molecules along with measured pIC50 for Sodium-dependent dopamine transporter (Rattus norvegicus, UniProt P23977).
One number for each entry, as −log10 of the molar value.

## Task Please list pIC50 recorded for the molecule CCc1cc(C2C(c3ccc(C)cc3)CC3CCC2N3C)on1 (stereo not drawn)
## Result 8.79

## Task Using the record for CN1C2CCC1C(c1ccno1)C(c1ccc(Cl)cc1)C2 (stereo not drawn) , state its measured pIC50.
## Result 9.11

## Task Fill in reported pIC50 for this entry: COc1ccc(-c2cc(C3C(c4ccc(C)cc4)CC4CCC3N4C)on2)cc1 (stereo not drawn)
## Result 8.41

## Task Indicate the recorded pIC50 value for this molecule: Cc1ccc(C2CC3CCC(C2c2cc(C(C)C)no2)N3C)cc1 (stereo not drawn)
## Result 8.35

## Task Provide measured pIC50 value, entry: Cc1ccc(C2CC3CCC(C2c2cc(C)no2)N3C)cc1 (stereo not drawn)
## Result 9.03

## Task Name the recorded pIC50 of the molecule listed here: CN1C2CCC1C(c1cc(-c3ccc(F)cc3)no1)C(c1ccc(Cl)cc1)C2 (stereo not drawn)
## Result 8.73

Please give pIC50, item by item, for the list that follows.
1. CC(C)c1cc(C2C(c3ccc(Cl)cc3)CC3CCC2N3C)on1 (stereo not drawn)
2. Cc1ccc(C2CC3CCC(C2c2cc(-c4ccc(Cl)cc4)no2)N3C)cc1 (stereo not drawn)

## Result
[8.92, 8.06]

----------
// endpoint pIC50 / system Sodium-dependent serotonin transporter (Rattus norvegicus, UniProt P31652)
Answers are plain numbers, as −log10 of the molar value.

Some solved entries appear below for comparison.
## Task Write down pIC50 measured for item Cc1ccc(C2CC3CCC(C2c2cc(-c4ccccc4)no2)N3C)cc1 (stereo not given)
## Result 5.29

## Task Recall and state the measured pIC50 for CN1C2CCC1C(C(=O)Oc1ccccc1)C(c1ccc(Cl)cc1)C2 (stereo not given) .
## Result 5.53

Now, please, on to the next compound.
## Task Tell me measured pIC50 for CN1C2CCC1C(c1cc(-c3ccc(F)cc3)no1)C(c1ccc(Cl)cc1)C2 (stereo not given) please.
## Result 5.14
